subject_of_test: human LARP1 LaM domain (residues 323–410) (Homo sapiens)
Construct: human LARP1 LaM domain (residues 323–410); made in house; host or cells: E. coli
protocol_details: Isothermal titration calorimetry (ITC) of RNA ligands binding LARP1 (323-410)
experimental_parameters: read-out: Kd2; second site, fit with two independent sets of sites; LaM 40 μM + ligand 730-750 μM
pKd: −log10 of the molar value.
endpoint_label: pKd

molecule="Nc1nc2c(ncn2[C@@H]2O[C@@H]3COP(=O)(O)O[C@H]4[C@@H](O)[C@H](n5cnc6c(N)ncnc65)O[C@@H]4COP(=O)(O)O[C@H]3[C@H]2O)c(=O)[nH]1 [3',3'-cGAMP, 3‘,3’-cGAMP]" endpoint_label=pKd reported_measurement=3.96

---

subject_of_test: human LARP1 LaM domain (residues 323–410) (Homo sapiens, UniProt Q6PKG0)
Construct: human LARP1 LaM domain (residues 323–410); made in house; host or cells: E. coli
protocol_details: Isothermal titration calorimetry (ITC) of RNA ligands binding LARP1 (323-410)
experimental_parameters: Table S1; LaM in cell, RNA in syringe
Returns one of true (1) or false (0); true (1) when Affinity relative to A6 is >= 1.

substance="5´-APAPAPGPAPA-3´ [AAAGAA]" class_assignment="false (0)"
substance="5´-APAPAPAPAPSA-3´ [(RP)-AAAAAPSA]" class_assignment="true (1)"
substance="5´-UPUPUPUPUPU-3´ [UUUUUU]" class_assignment="true (1)"
substance="5´-APAPAPAPAPSA-3´ [(SP)-AAAAAPSA]" class_assignment="true (1)"
substance="5´-APAPAPAPGPA-3´ [AAAAGA]" class_assignment="false (0)"

---

Property: ΔH; scope: individual substances
subject_of_test: human LARP1 LaM domain (residues 323–410) (Homo sapiens, UniProt Q6PKG0)
Construct: human LARP1 LaM domain (residues 323–410); made in house; host or cells: E. coli
protocol_details: Isothermal titration calorimetry (ITC) of RNA ligands binding LARP1 (323-410)
experimental_parameters: ITC, 20°C, LaM in cell, RNA in syringe
endpoint_label: ΔH (kcal/mol)

substance="5´-APAPAPAPAPG-3´ [AAAAAG]" value_units=kcal/mol reported_measurement=-27.5
substance="5´-APAPAPAPAPSA-3´ [(SP)-AAAAAPSA]" value_units=kcal/mol reported_measurement=-23.1
substance="5´-APAPAPAPGPA-3´ [AAAAGA]" value_units=kcal/mol reported_measurement=-29.5
substance="5´-UPUPUPUPUPU-3´ [UUUUUU]" value_units=kcal/mol reported_measurement=-21.4
substance="5´-APAPAPGPAPA-3´ [AAAGAA]" value_units=kcal/mol reported_measurement=-27.7
substance="5´-APAPAPAPAPSA-3´ [(RP)-AAAAAPSA]" value_units=kcal/mol reported_measurement=-19.4
substance="5´-APAPAPAPAPA-3´ [AAAAAA]" value_units=kcal/mol reported_measurement=-19.9

---

subject_of_test: human LARP1 LaM domain (residues 323–410) (Homo sapiens)
Construct: human LARP1 LaM domain (residues 323–410); made in house; host or cells: E. coli
protocol_details: Isothermal titration calorimetry (ITC) of RNA ligands binding LARP1 (323-410)
experimental_parameters: ITC, 20°C, LaM 20-30 µM in cell, RNA 300 µM in syringe, single set of identical sites; read-out: Kd
Kd strictly under 200 nM means 1.0; at 200 nM or over means 0.0.

substance="5´-APAPAPAPAPA-3´ [AAAAAA]" class_assignment=0.0
substance="5´-APAPAPAPAPSA-3´ [(RP)-AAAAAPSA]" class_assignment=0.0
substance="5´-APAPAPGPAPA-3´ [AAAGAA]" class_assignment=1.0
substance="5´-APAPAPAPAPG-3´ [AAAAAG]" class_assignment=1.0
substance="5´-UPUPUPUPUPU-3´ [UUUUUU]" class_assignment=0.0
